biological target: SARS-CoV-2 spike S2 protein (SARS-CoV-2, UniProt P0DTC2 686-1213)
Would you mind telling me the reported Kd of each entry?
Give a bare numeral; the unit nM is implied.

In: For AB-009293 (antibody, V domains shown) VH: QAQLVESGGGVVQPGRSLRLSCAASGFNFNNYGMHWVRLAAGKGLEWVAFISYEGSITHYADSVKGRFTVSRDFSKNTLYLQMNRLTTGDTAVYYCAKRREVLHLWRDEMDVWGQGTTVTVSS VL: DIQMTQSPPSLSASVGDRVTFTCRASQDITNSLAWFQQRPGKAPKSLIYAASTLHSGVPSKFSGSGSGTDFTLTITSLQPEDVATYYCQQYKTYPFTFGQGTRLEIK , what is its reported Kd?
Out: 0.0628

In: Same lookup for AB-009214 (antibody, V domains shown) VH: QVQLVESGGGVVQPGRSLRLSCAASGFTFSSYGMHWVRQAPGKGLEWVAVIWYDGSNKYYADSVKGRFTISRDNSKNTLYLQMNSLRAEDTAVYYCARDEPPSYYGSGSRFDYWGQGTLVTVSS VL: SYELTQPPSVSVSPGQTARITCSGDALPKKYAYWYQQKSGQAPVLVIYEDSKRPSGIPERFSGSSSGTMATLTISGAQVEDEADYYCYSTDSSGNHWVFGGGTKLTVL , please.
Out: 23.2

In: Same lookup for AB-009117 (antibody, V domains shown) VH: ELQLVESGGGLVKPGGSLRLSCTASGFTFISYSISWVRQAPGKGLEWVSSISSYSNYIFYGDSVKGRFNISRDNPKNSVYLQLNSLRAEDTAVYYCVRDTSFYEGGGYYNRFEPWGQGTRVTVSS VL: EIVMTQSPATLSVSPGERATLSCRASQSISINLAWYQQRPGQAPRLLIYGASTRATGIPARFSGSGSGTEFTLTISSLQSEDSAVYYCQQYNNWPPYTFGQGTTLEIK , please.
Out: 11.5
